Tested on: biotinyl-Phe-oxazolone
Assay: self-aminoacylation, catalytic enhancement (BFO) (fold over background); higher = more active; k-Seq, kA / k0A0; sequences stand for … in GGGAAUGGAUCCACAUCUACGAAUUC…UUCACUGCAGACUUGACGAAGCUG
Fewer inactive variants are shown than the library holds.
Please note: true applies when self-aminoacylation is 2 or greater, and false applies otherwise.

Would you please look over these solved cases?
1. CCACACUUCCAGCAAUCGGGC [Fam1B.1 aminoacylation ribozyme variant]
false
2. AUUCCCCAGGUCAUCGAGUGA [Fam2.1 aminoacylation ribozyme variant]
true
3. AUUACCCUGGUCAUCCAGUGG [Fam2.1 aminoacylation ribozyme variant]
false
4. AUUACACUGGACAUCGAGUGA [Fam2.1 aminoacylation ribozyme variant]
true
5. AAGUUUGCUUAGAGUCGCAAG [Fam3.1 aminoacylation ribozyme variant]
false
6. AUUUCCCUGGUCAUCCAGUGA [Fam2.1 aminoacylation ribozyme variant]
true
7. CUACUUCAGACAAACGGUCUG [Fam1A.1 aminoacylation ribozyme variant]
false
8. GUUCACCUAGGUCAUCGGGUG [Fam2.2 aminoacylation ribozyme variant]
true

Data request: Assess whether reported self-aminoacylation for AUUCACCUAGGUCACCGGGCG [Fam2.2 aminoacylation ribozyme variant] sits at 2 or higher.
Data returned: true

Data request: Exam item: decide whether the reported self-aminoacylation for CUACUUCACACGAUCGGUCUG [Fam1A.1 aminoacylation ribozyme variant] is at least 2.
Data returned: false

Data request: Say whether AGUACCCUGGGCAUCGAGUGA [Fam2.1 aminoacylation ribozyme variant] shows self-aminoacylation of 2 or more.
Data returned: true

Data request: Reported self-aminoacylation reaches at least 2 for AUUCACCUAGGACAUCGGGAG [Fam2.2 aminoacylation ribozyme variant] ?
Data returned: false

Data request: Hello, I need to know if AUCACCCUGGUCAACGAGUGA [Fam2.1 aminoacylation ribozyme variant] has measured self-aminoacylation not below 2. Thanks!
Data returned: true

Data request: Does the reported self-aminoacylation for AUUCAUCUAUGUCAUCGGGUG [Fam2.2 aminoacylation ribozyme variant] fall at or above the 2 mark?
Data returned: true

Data request: Could you verify whether the entry CCACUCUUCAAGCAAUCAGUC [Fam1B.1 aminoacylation ribozyme variant] shows self-aminoacylation of no less than 2?
Data returned: true

Data request: Has AAGUUUGCUGAUAGUCGCCAG [Fam3.1 aminoacylation ribozyme variant] a recorded self-aminoacylation greater than or equal to 2?
Data returned: true

Data request: Dear colleague, could you confirm whether UCACACUUCAAGCAAUCGCUC [Fam1B.1 aminoacylation ribozyme variant] has self-aminoacylation at or above 2?
Data returned: false

Data request: Kindly determine if self-aminoacylation recorded for CUACUUGAAACGAUCGGUCUG [Fam1A.1 aminoacylation ribozyme variant] is above or exactly 2.
Data returned: false

Data request: Item AUUACGCUUGUCAUCGAGUGA [Fam2.1 aminoacylation ribozyme variant] with self-aminoacylation of 2 or above?
Data returned: true

Data request: Reported self-aminoacylation reaches at least 2 for AAGAUUGCUAAUAGUCGAAAG [Fam3.1 aminoacylation ribozyme variant] ?
Data returned: true
